IC50 values, listed per item
- assayTarget: human SGLT2 (Homo sapiens, UniProt P31639)
- Sequence (P31639 whole entry): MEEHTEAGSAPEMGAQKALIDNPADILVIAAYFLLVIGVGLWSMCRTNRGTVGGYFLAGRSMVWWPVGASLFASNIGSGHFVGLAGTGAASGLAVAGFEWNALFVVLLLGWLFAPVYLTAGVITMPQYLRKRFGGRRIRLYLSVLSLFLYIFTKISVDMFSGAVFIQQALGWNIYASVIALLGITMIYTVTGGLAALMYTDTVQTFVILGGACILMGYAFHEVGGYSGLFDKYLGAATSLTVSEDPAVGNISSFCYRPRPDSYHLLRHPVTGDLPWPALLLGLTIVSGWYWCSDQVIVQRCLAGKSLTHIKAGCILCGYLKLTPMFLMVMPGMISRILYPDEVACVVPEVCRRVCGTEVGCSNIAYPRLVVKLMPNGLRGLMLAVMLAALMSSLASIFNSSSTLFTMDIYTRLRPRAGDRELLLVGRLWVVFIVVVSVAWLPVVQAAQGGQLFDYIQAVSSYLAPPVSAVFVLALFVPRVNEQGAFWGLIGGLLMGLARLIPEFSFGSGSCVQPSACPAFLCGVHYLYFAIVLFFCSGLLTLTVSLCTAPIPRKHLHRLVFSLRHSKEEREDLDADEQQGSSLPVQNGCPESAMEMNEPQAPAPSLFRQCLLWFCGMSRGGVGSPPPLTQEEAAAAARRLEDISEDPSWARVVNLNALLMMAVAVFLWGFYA
- testProtocol: SGLT2 assay: Na-dependent 14C-AMG uptake in CHO-K1 cells stably expressing human SGLT2
- appliedConditions: average if tested more than once
- Protocol: The ability of the compounds of formula (I) of the present invention to treat an SGLT-mediated condition was determined using the following procedures: […] Inhibition of SGLT1 and SGLT2 activity was assessed in CHO K1 cells stably expressing either human SGLT1 or SGLT2, using the SGLT specific glucose analog methyl-glucopyranoside (Sigma Catalog No. M-9376). […] The cells were then solubilized by adding 60 μl of MICROSCINT™20 and the Na-dependent ^14C-AMG uptake was quantified by measuring radioactivity. […]
# unit: nM | format: bare number

Check out these entries, answers already filled in.
Respond only with IC50 recorded for `CCc1cc(O)c([C@@H]2O[C@H](CO)[C@@H](F)[C@H](O)[C@H]2O)cc1Cc1cc2c(s1)CCN(C#N)C2`
2

Report measured IC50; entry is COc1cc(O)c(C2OC(C(C)O)C(F)C(O)C2O)cc1Cc1cc2ccccc2s1 (single isomer, unassigned) [Compound 52]
9

Supply IC50 value. Item: `Cc1cc(O)c([C@@H]2O[C@H](CO)[C@@H](F)[C@H](O)[C@H]2O)cc1Cc1cc2c(s1)CCCC2=O`
11

Okay, next one:
Supply IC50 value. Item: `[2H]C([2H])([2H])Oc1c([C@@H]2O[C@H](CO)[C@@H](F)[C@H](O)[C@H]2O)cc(C([2H])([2H])c2ccc3c(c2)OCCO3)c2c1CCO2`
7
